Reference source: PubChem BioAssay (NCI)

system: SK-MEL-2 melanoma; experiment: NCI tumour cell line growth inhibition, 48 h
Readings of TGI for the listed compounds

Here are 5 compounds together with their reported answers.
>>> endpoint_result("C/C(=C\\C(=O)O)C(=O)N(C)c1ccccc1I")
"> 100 µM"
>>> endpoint_result("Cc1ccc(/C=C2\\CCCC(C(NO)c3ccc(C)cc3)C2=NO)cc1 (stereo not given)")
"> 100 µM"
>>> endpoint_result("COC(=O)c1c2c(cc3c1CC1(Cc4cc5c(cc4C1)CCCC5)C3)CCCC2")
"> 100 µM"
>>> endpoint_result("O=C(Cc1csc2nc(-c3ccc(Br)cc3)cn12)N/N=C/c1ccccc1O")
"53.8 µM"
>>> endpoint_result("O=C(CN1CCCC1)Nc1ccc2c(c1)C1Oc3ccccc3CC1CO2 (stereo not given)")
"50 µM"

For this compound ( `Cc1cc(S(=O)(=O)NC2=NCc3c(F)cccc3N2)c(S)cc1Cl` ), measured TGI is > 100 µM

For this compound ( `CN=C1C=C(/N=C2/C=C(N/C(=C\C#N)C(C)(C)O)OC2(C)C)OC1(C)C` ), measured TGI is > 82.8 µM

====

test system: SN12C renal; assay: NCI tumour cell line growth inhibition, 48 h
metric name: TGI

Here are 4 molecules together with their reported answers.
>>> endpoint_result("COc1ccc(-c2nn(-c3cccc(Cl)c3)cc2-c2c(C#N)c(=O)n3[nH]c(-c4ccc(C)o4)nc3c2C#N)cc1")
"> 50 µM"
>>> endpoint_result("CN(Cc1ccccc1)C(=S)S")
"> 100 µM"
>>> endpoint_result("CC1(c2ccc(Cl)cc2)c2ccccc2C(=O)N1CCCN1C(=O)c2ccccc2C1=O (stereo not given)")
"> 100 µM"
>>> endpoint_result("O=C(CC/C(CC(=O)c1ccc(Cl)cc1)=N\\O)Nc1cccc(Cl)c1")
"> 100 µM"

Now, please, on to the next molecule.
For this molecule ( Cc1nc2sc(C(=O)Nc3cccc(Cl)c3)c(N)c2cc1C(O)c1ccccc1 (stereo not given) ), measured TGI is 13.6 µM

====

tested on: HL-60(TB) leukemia; experiment: NCI tumour cell line growth inhibition, 48 h
metric name: TGI (µM)
Give just the numeric value; µM need not be written.

>>> endpoint_result("COc1ccc(C2CC(c3cccc(Nc4ccncc4)c3)=NN2c2ccccc2)cc1 (stereo not given)")
4.06
>>> endpoint_result("CCCCCCC1CCCCN1C(c1ccccc1)C(O)c1ccccc1 (stereo not given)")
7.01

Now, please, on to the next compound.
For this compound ( `CCOc1ccccc1NC(=O)C1=C(C)NC(C)=C(C(=O)Nc2ccccc2OCC)C1c1ccc2c(c1)OCO2` ), measured TGI is 45.3

====

tested on: KM12 colon; test: NCI tumour cell line growth inhibition, 48 h; in the data active = GI50 below about 0.43 µM; inactive = the rest
Hi! Could you answer with just one of these? class 1 for active, class 0 for inactive

>>> group_label("COc1ccc2c(c1)CCC1C2CCC2(C)C(NC(=O)CCCCC3CCSS3)CCC12 (stereo not given)")
"class 0"
>>> group_label("COc1ccccc1CNCCCN1C(=O)c2ccc3c4c(ccc(c24)C1=O)C(=O)N(CCCNCCCCN)C3=O")
"class 1"
>>> group_label("COc1ccc2cc1Oc1ccc(cc1)CC1c3c(cc(OC)c4c3Oc3cc5c(cc3O4)CCNC5C2)CCN1C (stereo not given)")
"class 0"
>>> group_label("CC[C@]1(O)C[C@@H]2CN(CCc3c([nH]c4ccccc34)[C@@](C(=O)OC)(c3cc4c(cc3OC)N(C)[C@H]3[C@@](O)(C(=O)OC)[C@H](OC(=O)CCCBr)[C@]5(CC)C=CCN6CC[C@]43[C@@H]65)C2)C1")
"class 1"
>>> group_label("CNc1ccc(CSc2ccc(C)cc2)cc1")
"class 0"
>>> group_label("NCC[PH+](c1ccccc1)c1ccccc1.NCC[PH+](c1ccccc1)c1ccccc1.[Cl-].[Pt+4]")
"class 0"
>>> group_label("COc1cc(C(=O)/C=C/c2c(C)n([O-])c3ccc(Cl)cc3[n+]2=O)cc(OC)c1OC")
"class 0"
>>> group_label("COc1ccc([C@H]2c3[nH]c4ccccc4c3C[C@H]3C(=O)N(CCCCCCC(=O)NO)CC(=O)N23)cc1")
"class 0"

Called result for `COc1ccc(-c2nn(-c3cccc(Cl)c3)cc2-c2c(C#N)c(=O)n3[nH]c(-c4ccc(C)o4)nc3c2C#N)cc1` class 0

Called result for `COc1cc(C(=O)Nc2ccc(-c3nc4ccccc4[nH]3)cc2)cc(OC)c1OC` class 0

Called result for COc1cc2c(cc1OC)C(Sc1ccc(Cl)cc1)c1c(nc(N)c(C#N)c1N)O2 (stereo not given) class 0

Called result for `O=C(Cc1csc2nc(-c3ccc(Br)cc3)cn12)N/N=C/c1ccccc1O` class 0

Called result for `Cc1ncc([N+](=O)[O-])n1CCOc1ccc(C(=O)/C=C/c2ccc(C(F)(F)F)cc2)cc1` class 0

Called result for `Clc1cc(Cl)cc(Nc2ccc3c(OCCCN4CCOCC4)cccc3n2)c1` class 0

Called result for Nc1c([N+](=O)[O-])ncn1C1OC(CO)C(O)C1O (stereo not given) class 0
